Task for the reader: assign each of the following molecules its reported IC50.
- TESTED SYSTEM: FimH-CRD (Escherichia coli, UniProt P08191)
- Construct: The first 177 amino acids of the FimH protein; thrombin tag (printed as 'fusion protein with thrombin') (cleaved yes)
- Sequence (P08191 22-177): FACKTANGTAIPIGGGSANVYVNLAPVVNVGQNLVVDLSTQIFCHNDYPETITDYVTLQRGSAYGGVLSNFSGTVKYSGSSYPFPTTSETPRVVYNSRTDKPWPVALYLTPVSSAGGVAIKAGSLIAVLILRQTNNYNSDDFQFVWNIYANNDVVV
- METHOD SUMMARY: Competitive binding assay by fluorescence polarization, assay 1 (compounds prepared by manual serial dilution)
Give just the number in µM; leave the unit off.

# input Would you mind telling me what IC50 value was observed for OC[C@H]1O[C@H](c2ccc(O)cc2)[C@@H](O)[C@@H](O)[C@@H]1O [Compound 46] ?
# output 0.148

# input Would you mind telling me what IC50 value was observed for OC[C@H]1O[C@H](c2cccc(-c3cc4ccccc4s3)c2)[C@@H](O)[C@@H](O)[C@@H]1O [Compound 12] ?
# output 0.067

# input Would you mind telling me what IC50 value was observed for CNC(=O)c1cc(C(=O)NC)cc(-c2cccc([C@H]3O[C@H](CO)[C@@H](O)[C@H](O[C@H]4O[C@H](CO)[C@@H](O)[C@H](O)[C@@H]4O)[C@@H]3O)c2)c1 [Compound 277] ?
# output 0.047

// provenance: patent US20130261077A1
